The molecules listed here are annotated with their GI50.
System: XF498
Test: NCI tumour cell line growth inhibition, 48 h
The source made the active and inactive calls. Rule as the data show it: active = GI50 up to about 1.1 µM and inactive = higher.

{"columns": ["molecule", "GI50"],
 "data": [
  ["CC(=O)O[C@H]1CC[C@@]2(C)C(=CC[C@H]3C(CC#N)[C@@](C)(C#N)CCC32)C1 (stereo partly specified)", "> 100 µM (inactive)"],
  ["C=C=C(Sc1ccccc1)C(C)(C)O", "> 100 µM (inactive)"],
  ["COc1ccc(NC(=O)CC2S/C(=N\\c3ccccc3C)NC2=O)c([N+](=O)[O-])c1 (stereo unspecified)", "> 100 µM (inactive)"],
  ["O=c1c2ccccc2[nH]c(=S)n1-c1ccc(Br)cc1", "> 100 µM (inactive)"],
  ["O=S(=O)(N/N=C/c1ccc(Cl)cc1Cl)c1ccccc1", "78.7 µM (inactive)"],
  ["COC(=O)C(Cc1ccccc1)NC(=O)Cn1ccnc1[N+](=O)[O-] (stereo unspecified)", "> 100 µM (inactive)"],
  ["C/C(CC(=O)NC1=CC=C(NC(=O)C/C(C)=N\\Nc2ccccc2)CC1)=N/Nc1ccccc1", "> 100 µM (inactive)"],
  ["COc1ccc(/C=C/c2cc(OC)c(OC(C)=O)c(OC)c2)cc1", "34.5 µM (inactive)"],
  ["Cc1cccc(C)c1NC(=O)CCc1nnc2s/c(=C\\c3ccc(Cl)cc3)c(=O)n12", "52.8 µM (inactive)"],
  ["O=C(/C=C/c1ccccc1)NC1C=Nc2ccc([N+](=O)[O-])cc2NC1=O (stereo unspecified)", "> 100 µM (inactive)"],
  ["Cc1ccc2c(c1)SC(c1cc3c(cc1Br)OCO3)S2 (stereo unspecified)", "> 100 µM (inactive)"]
]}
